From: ChEMBL document CHEMBL3745614

Exercise: for every item that follows, state its recorded Activity.
- system_under_test: Monoglyceride lipase (Homo sapiens)
- experimental_protocol: Inhibition of human MGL expressed in […] cells using 2AG as substrate assessed as residual activity at 10 uM preincubated for 10 mins followed by substrate addition measured after 10 mins by HPLC analysis
- Type: cell-based
Kindly provide the numeric value in % only, without the unit symbol.

-- ask Item under review: O=C(NC(=S)Nc1ccc(S(=O)(=O)NCc2ccco2)cc1)c1ccc(-c2ccccc2)cc1 . Reported Activity?
-- reply 93

-- ask Try the molecule Cc1ccc(C(=O)NC(=S)Nc2ccc(S(=O)(=O)NC(C)C)cc2)c(Br)c1
-- reply 89

-- ask # iterate: CC(C)CNS(=O)(=O)c1ccc(NC(=S)NC(=O)c2ccc(-c3ccccc3)cc2)cc1
-- reply 107

-- ask Try the molecule O=C(NC(=S)Nc1ccc(S(=O)(=O)NCCc2ccccc2)cc1)c1ccc(-c2ccccc2)cc1
-- reply 99

-- ask Please do the same for C=CCN(CC=C)S(=O)(=O)c1ccc(NC(=S)NC(=O)c2ccc([N+](=O)[O-])cc2)cc1 as well.
-- reply 104

-- ask // repeat for CN1CCN(S(=O)(=O)c2ccc(NC(=S)NC(=O)c3ccc(-c4ccccc4)cc3)cc2)CC1 and report
-- reply 97

-- ask Entry to check: C=CCNS(=O)(=O)c1ccc(NC(=S)NC(=O)c2ccc(-c3ccccc3)cc2)cc1
-- reply 96

-- ask Here is the next molecule: Cc1ccc(CNS(=O)(=O)c2ccc(NC(=S)NC(=O)c3ccc(-c4ccccc4)cc3)cc2)cc1
-- reply 100

-- ask Next: O=C(NC(=S)Nc1ccc(S(=O)(=O)NCCc2c[nH]c3ccccc23)cc1)c1ccc(-c2ccccc2)cc1
-- reply 102

-- ask Try this molecule too: O=C(NC(=S)Nc1ccc(S(=O)(=O)Nc2ccc(Cl)cc2)cc1)c1ccc(-c2ccccc2)cc1
-- reply 105

-- ask Same read-out for CCCCc1ccc(NS(=O)(=O)c2ccc(NC(=S)NC(=O)c3ccc(-c4ccccc4)cc3)cc2)cc1 ?
-- reply 104

-- ask Then this molecule: O=C(NC(=S)Nc1ccc(S(=O)(=O)Nc2ccccc2)cc1)c1ccc(-c2ccccc2)cc1
-- reply 104

-- ask Could you do the same for Cc1ccc(C(=O)NC(=S)Nc2ccc(S(=O)(=O)NC(C)(C)C)cc2)cc1 , please?
-- reply 96

-- ask Same read-out for CC(=O)NS(=O)(=O)c1ccc(NC(=S)NC(=O)c2cccc3ccccc23)cc1 ?
-- reply 98

-- ask Similarly, CC(C)NS(=O)(=O)c1ccc(NC(=S)NC(=O)c2ccc(-c3ccccc3)cc2)cc1 ?
-- reply 98

---

- system_under_test: Cannabinoid receptor 2 (Homo sapiens)
- experimental_protocol: Agonist activity at CBR2 (unknown origin) assessed as [35S]GTPgammaS binding at 10 uM by […] assay relative to control
- Format: functional
Kindly state Activity for each of the entries shown.
Write the answer as a number in %, unit excluded.

-- ask // returns reported Activity for input O=C(NC(=S)Nc1ccc(S(=O)(=O)Nc2ccccc2)cc1)c1ccc(-c2ccccc2)cc1
-- reply 90

-- ask Here is the next compound: COc1ccc(C(=O)NC(=S)Nc2ccc(S(=O)(=O)NC(C)C)cc2)cc1
-- reply 90

-- ask Queued: Cc1ccc(C(=O)NC(=S)Nc2ccc(S(=O)(=O)NC(C)(C)C)cc2)cc1
-- reply 100

-- ask Could you do the same for C=CCNS(=O)(=O)c1ccc(NC(=S)NC(=O)c2ccc(-c3ccccc3)cc2)cc1 , please?
-- reply 87

-- ask Now consider CN1CCN(S(=O)(=O)c2ccc(NC(=S)NC(=O)c3ccc(-c4ccccc4)cc3)cc2)CC1 .
-- reply 101

-- ask # repeat for CCCCc1ccc(NS(=O)(=O)c2ccc(NC(=S)NC(=O)c3ccc(-c4ccccc4)cc3)cc2)cc1
-- reply 90

-- ask Moving on to CC(=O)NS(=O)(=O)c1ccc(NC(=S)NC(=O)c2ccc(C(C)C)cc2)cc1
-- reply 96
